- system: Solute carrier family 12 member 5 (Homo sapiens, UniProt Q9H2X9)
- Sequence (Q9H2X9 whole entry): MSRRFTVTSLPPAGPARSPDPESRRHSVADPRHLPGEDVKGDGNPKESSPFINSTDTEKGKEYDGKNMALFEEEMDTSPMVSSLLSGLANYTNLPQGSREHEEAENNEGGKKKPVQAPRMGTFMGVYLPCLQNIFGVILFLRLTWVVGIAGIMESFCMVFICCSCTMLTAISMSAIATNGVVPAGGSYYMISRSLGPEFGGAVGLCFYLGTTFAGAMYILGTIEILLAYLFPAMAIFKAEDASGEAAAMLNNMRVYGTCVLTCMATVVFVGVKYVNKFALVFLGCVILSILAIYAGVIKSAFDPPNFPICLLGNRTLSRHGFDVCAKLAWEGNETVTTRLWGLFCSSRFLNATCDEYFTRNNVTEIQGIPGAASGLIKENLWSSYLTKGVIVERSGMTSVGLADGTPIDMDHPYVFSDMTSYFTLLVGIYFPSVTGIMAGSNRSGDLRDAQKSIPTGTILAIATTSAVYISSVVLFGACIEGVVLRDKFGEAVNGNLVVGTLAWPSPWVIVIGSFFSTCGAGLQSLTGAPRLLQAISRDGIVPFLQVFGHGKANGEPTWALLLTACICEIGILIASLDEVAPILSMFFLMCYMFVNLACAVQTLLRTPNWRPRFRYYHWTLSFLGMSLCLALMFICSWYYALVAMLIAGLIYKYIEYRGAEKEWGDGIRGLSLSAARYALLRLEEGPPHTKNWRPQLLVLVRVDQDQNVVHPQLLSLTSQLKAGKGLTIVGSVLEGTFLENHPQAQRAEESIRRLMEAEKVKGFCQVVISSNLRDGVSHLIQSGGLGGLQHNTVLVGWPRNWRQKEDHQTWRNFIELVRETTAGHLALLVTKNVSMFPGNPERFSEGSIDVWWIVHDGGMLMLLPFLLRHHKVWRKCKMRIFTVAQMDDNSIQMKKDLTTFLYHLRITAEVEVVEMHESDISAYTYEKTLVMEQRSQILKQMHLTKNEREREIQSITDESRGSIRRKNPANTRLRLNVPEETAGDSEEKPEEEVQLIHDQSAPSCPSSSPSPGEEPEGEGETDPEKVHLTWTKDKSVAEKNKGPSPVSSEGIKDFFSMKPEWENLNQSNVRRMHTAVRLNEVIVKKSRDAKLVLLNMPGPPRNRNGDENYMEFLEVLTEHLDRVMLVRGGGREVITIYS
- assay-name: concentration-response of KCC2 transport modulators – cell-based, HEK293 KCC2, FluoZin-2 fluorescence, dose response (AID 1736)
Class (required): determined from EC50; valid ranges are lower range: < 2 µM; middle range: ≥ 2 µM and < 10 µM; upper range: ≥ 10 µM

Below are worked cases with known answers.
compound="CC(C)(C)NC(=O)C(c1cccs1)N(CC1CCCO1)C(=O)c1ccc(-c2ccccc2)[nH]1 (stereo not given)" system="Solute carrier family 12 member 5 (Homo sapiens, UniProt Q9H2X9)" class_label="lower range"
compound=C=CCNc1oc(Cc2cccc3ccccc23)nc1C#N system="Solute carrier family 12 member 5 (Homo sapiens, UniProt Q9H2X9)" class_label="upper range"
compound=O=C(NNc1nc(-c2ccccc2)cs1)c1ccccc1 system="Solute carrier family 12 member 5 (Homo sapiens, UniProt Q9H2X9)" class_label="lower range"
compound=CC(=NNC(=O)c1ccc(Br)cc1)c1ccccc1 system="Solute carrier family 12 member 5 (Homo sapiens, UniProt Q9H2X9)" class_label="middle range"
compound=O=c1c2ccccc2c(-c2nnc(S)o2)nn1Cc1ccccc1 system="Solute carrier family 12 member 5 (Homo sapiens, UniProt Q9H2X9)" class_label="middle range"

With those in mind, consider the next compound.
QUERY: Textbook exercise: identify the category of the compound given here, "O=C(O)CC/C(=C\c1ccc(N2CCCC2)c([N+](=O)[O-])c1)c1nc2ccccc2s1" , according to its measured value.
RESULT: upper range
